System: MOLT-4 leukemia
METHOD_SUMMARY: NCI tumour cell line growth inhibition, 48 h
Documented TGI across a set of molecules

O=c1c(-c2ccccc2)c(SCCCN2CCN(c3cccc(Cl)c3)CC2)n(-c2ccccc2)c(=S)n1-c1ccccc1: > 100 µM
COc1ccc2c(c1)CCc1c-2[nH]c2ccc(OC)cc12: > 100 µM
Cc1ccc(N(CSc2ccc(Cl)cc2)CSc2ccc(Cl)cc2)cc1: 2.63 µM

Proceed to the following item.
For CCOC(=O)c1nc2c(Cl)c3ncccc3cc2[nH]c1=O the molecule record lists TGI as 45.6 µM

====

System: CCRF-CEM leukemia
METHOD_SUMMARY: NCI tumour cell line growth inhibition, 48 h; in the data active = GI50 below about 0.43 µM; inactive = the rest
Allowed answers: active, inactive

### Prompt Could you please tell me the result logged for Cc1cc(NC(=O)c2ccc(C)c(Nc3nccc(-c4cccnc4)n3)c2)cc(-n2cnc(C)c2)c1 in this assay?
### Response active

### Prompt How did this test come out for Cc1[nH]n(-c2cccc(Cl)c2)c(=O)c1/C=C1\C=Nc2ccc(Br)cc21 ?
### Response inactive

### Prompt Please share the test call associated with CCN(CC)CC(C)(C)C(=O)/C=C/c1ccc(Cl)c(Cl)c1 .
### Response inactive

====

Test system: SNB-19 CNS
METHOD_SUMMARY: NCI tumour cell line growth inhibition, 48 h
QUANTITY_KIND: TGI

The reported value for N#CSc1nc[nH]c1C(N)=O in terms of TGI is > 100 µM

Notebook: O=C1C(Cl)C(c2ccccc2)N1n1cnc2ccccc2c1=O (stereo unspecified) , TGI read as > 100 µM

====

Listed below: TGI values for each entry.
System: SF-268 CNS
METHOD_SUMMARY: NCI tumour cell line growth inhibition, 48 h
State the answer as a number, implicitly in µM.

# annotated cases, reported TGI shown
O=C(NCCCNC(=O)c1ccc2c(O)c(O)ccc2c1)c1ccc2c(O)c(O)ccc2c1: 58.1
Cc1sc2nc(NCCc3c[nH]c4ccc(Cl)cc34)[nH]c(=O)c2c1C: 8.13

Next up:
# TGI (compound: O=C(CC(c1ccccc1)N1CCCCC1)c1ccccc1 (configuration not stated) ) is 33.4

====

Test system: LOX IMVI melanoma
METHOD_SUMMARY: NCI tumour cell line growth inhibition, 48 h
Rule: 1 (yes) for TGI not less than 30 µM, 0 (no) for anything less.

Solved cases below.
COC(=O)C(=C/c1ccc(OC)cc1)/C(C(=O)O)=C(/C)c1ccccc1: 1 (yes)
COc1cc2cn3c4ccc(O)cc4[nH]c(=O)c3c2cc1OC: 0 (no)
Cc1c[n+](Cc2ccc3ccccc3c2)cn1Cc1ccc2ccccc2c1: 0 (no)
CC(=O)Oc1ccc(Nc2c3ccccc3nc3ccccc23)cc1: 0 (no)
O=C(O)c1ccccc1-c1ccccc1C(=O)Nc1ccc2c(c1)Cc1cc(F)ccc1-2: 1 (yes)
CC(=O)Oc1ccccc1-c1cc2ccccc2oc1=O: 1 (yes)
CCOC(=O)C(N)CSC(=O)NC (stereo not given): 1 (yes)
O=C1NC(=O)C(c2c[nH]c3cc(Br)ccc23)=C1c1cn(C(c2ccccc2)(c2ccccc2)c2ccccc2)cn1: 1 (yes)
COc1cc(/C=C2\C(=O)Nc3ccc(F)cc32)cc(OC)c1OC: 1 (yes)
COc1ccc(C(=O)C(CO)Oc2ccccc2OC)cc1OC (stereo not given): 1 (yes)

### Prompt Quick check: does CO[C@H]1[C@@H](O)[C@@H](C)O[C@@H](O[C@H]2CC[C@@]3(C)[C@H](CC[C@@H]4[C@@H]3CC[C@]3(C)[C@@H](C5=CC(=O)OC5)[C@@H](OC(C)=O)C[C@]43O)C2)[C@@H]1O have TGI greater than or equal to 30 µM?
### Response 0 (no)

### Prompt Determine whether measured TGI meets or exceeds 30 µM for CN(C)C(=O)NCCN1CCCCCc2ccccc21
### Response 1 (yes)

### Prompt Is TGI at least 30 µM? Consider CCN(CC)/C(Cl)=C(Cl)\C(=C1\Nc2ccc(OC)cc21)[N+](=O)[O-]
### Response 1 (yes)

### Prompt Say whether CC1(C)OCC2OC3(c4nc(C#N)c(N)o4)OC(C)(C)OC3C2O1 (stereo not given) shows TGI of 30 µM or more.
### Response 1 (yes)

### Prompt Please tell me: is the compound C=CCn1c(=O)n(CC=C)c(=O)n(CC=C)c1=O at or over 30 µM in terms of TGI?
### Response 1 (yes)

The values you see were collected from PubChem BioAssay (NCI).
